Listed below: yeast fitness values for each entry.
B1: tRNA (parent)
chain: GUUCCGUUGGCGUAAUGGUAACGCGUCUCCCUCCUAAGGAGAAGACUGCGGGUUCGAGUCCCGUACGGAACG

Variants of: B1
Assay: yeast fitness relative to wild type (ratio to wild type); higher = fitter; tRNA-Arg(CCU), competitive growth, 37 C, YPD
Variants at the floor of the assay were thinned out.
ASSAY_READOUT: yeast fitness

# INPUT_SEQUENCE, ASSAY_READOUT, RESULT_VALUE
rows = [
    ("GUUCCGUUGGCGUAGUGGUAGCGCGUCUCCCUCCUAAGGAGAAGACUGCGGGUUCGAGUCCCGUACGGAACG [A15G A21G]", "yeast fitness", 1.02),
    ("GUUCCGUUGGCGUAAUAGUAACGCGUCUCCCUCCUAAGGAGAAGAUUGCGGGUUCGAGUCCCGUACGGAACG [G17A C46U]", "yeast fitness", 0.878),
    ("GUUCCCUUGGCGUAAUGGUAGCGGGUCUCCAUCCUAAGGAGAAAACUGCGGGUUCGAGUCCCGUACGGAACG [G6C A21G C24G C31A G44A]", "yeast fitness", "≤ 0.5"),
    ("GUUCCAUUGGCAUAAUGGUAACGCGUCUCCCUCUUAAGGAAAAGACUGCGGGUUCGAGUCCCGUACGGAACG [G6A G12A C34U G41A]", "yeast fitness", 0.556),
    ("GUUCCGUUGGCGAAAUGGUAACGCGUCUCCCCCCUAAGGAGAAGACUGCGGGUUCGAGUCCCGUACAGAGCG [U13A U32C G67A A70G]", "yeast fitness", 0.547),
    ("GUUCCGUCGGCGUAAUGGUAACGCGUCUCCCUCGUAAGGAGAAGACUGCGGGUUCGACUCCUGUACGGAACG [U8C C34G G58C C62U]", "yeast fitness", "≤ 0.5"),
    ("GUUCCGUGGGCGUAAUGGUAACGCGUCUCCCUCCUAAGGAGAAGACUGCGGGUUCGAGUCCCGUACGGAUCG [U8G A70U]", "yeast fitness", 0.59),
    ("GUACCGUUGGCGUAAUGGUAACGCGUCUCCCUCCCAAGGAGAAGACUGCGGGUUCGCGUCCCGUACGGAACG [U3A U35C A57C]", "yeast fitness", "≤ 0.5"),
    ("GUUCCGUUGGCGUAAUGGUAACGCGUCUCCCGGCUAAGGAGAAGACUGCAGGGUCGAGUCCCGUACGGGCCG [U32G C33G G50A U53G A69G A70C]", "yeast fitness", "≤ 0.5"),
    ("GUUCCGUUGGCGUAAUGGUACCGUGUCUCCCUCCUAAGGAGAAGAUUGCGGGUUCGAGUUCCGUACGGAACG [A21C C24U C46U C60U]", "yeast fitness", "≤ 0.5"),
    ("GUUCUGUUGGCGUAAUGGUAACGCGUCUCCCUCCUAAGGAGAAGACUGCGGGUUCGUGUCUCGUACGGAACG [C5U A57U C61U]", "yeast fitness", 0.59),
    ("GUUACGUUGGCGUAAUGGUAACGCGUUUCCCUCCUAAGGAGAAGACUGCGGGUUCGAGUGCCGUACGGAACG [C4A C27U C60G]", "yeast fitness", "≤ 0.5"),
    ("GUUCCGUUGGCGUAAUGGUAACGCGUCUCCCUCGUAAGGAGGUGACUGCGGGUUCGAGUCCCGUACGGAACG [C34G A42G A43U]", "yeast fitness", 0.635),
    ("GUUCCAUCGGCGUAAUGCUACCGCGUCUCCCUACUAAGGAGAAGACUGCGGGUUCGAGUCCCGUACGGAACG [G6A U8C G18C A21C C33A]", "yeast fitness", "≤ 0.5"),
    ("GUUCCGUUGGCGUAACGGUAACGCGUCUCUCUCCUAAGGAGAAGAAUGCGGGUUCGAGUCCCGUACGGAACG [U16C C30U C46A]", "yeast fitness", 0.768),
    ("GUCCCAUUGGCGUAAUGGUAACGCGUCUGCCUCCUAAGGAGAAGACUGCGGGUUCGAAUCCCGUACGGAACG [U3C G6A C29G G58A]", "yeast fitness", "≤ 0.5"),
    ("GUUCCGUUGGCGUAAUGCUAAUGCGUCUCCCUCGUAAGGAGAAGACUGCGGGUUCGAGUCCCGUACGGAACG [G18C C22U C34G]", "yeast fitness", 0.688),
    ("GUUCCGUUGGCGUAAUGGUAACGCGUCUCCCUGCUAGGGAGACGACUGCGGGUUCGACUCCCGUACGGAACG [C33G A37G A43C G58C]", "yeast fitness", 0.547),
    ("GUUCCGUUGGCGUAAUGGUAUUGCGCCUCCCUCCUAAGGAGAAGACUGCGGGUUCGAGUCCCGUACGGAACG [A21U C22U U26C]", "yeast fitness", "≤ 0.5"),
    ("GUUCCGUUGGCGUAAUCCGAACGGGUCUCCCUCCUAAGGAGAAGACUGCGGGUUCGAGUCCCGUACGGAACG [G17C G18C U19G C24G]", "yeast fitness", "≤ 0.5"),
    ("GUUCCGUUGGCAUAAUGGUAACGCAUCUCCCUCCUAAGGAGAAGACUGCGGAUUCGAGUCCCGUACGGAACG [G12A G25A G52A]", "yeast fitness", 0.583),
    ("GUUCCGUUGGCGUAAUGGUAACGCGUCUCACUCCUAAGGAGAAGACUACGGGUUCGAGUCCCGAAGGGAACG [C30A G48A U64A C66G]", "yeast fitness", 0.611),
    ("GUUCCGUUGGCGUACUGGUAAUGCGUCUCCCUCCUAAAGAGAAGACUGCGGGUUGGAGUCCCGUACGGAACG [A15C C22U G38A C55G]", "yeast fitness", "≤ 0.5"),
    ("GUUCCGAUGGCGUAAUGGUAACGCGUCUUCCUCCUAAGGAGAAGACUGCGGGUUCGAGUCUCGUACGCAACG [U7A C29U C61U G68C]", "yeast fitness", 0.582),
    ("GUUCCGUUGGUGUACUGGUAACGCGUCUCCCUCCUAAGGAGAAGACUGCGGGUUCGAGUCCCGUACGGAUCG [C11U A15C A70U]", "yeast fitness", 0.586),
    ("GUUCCGAGGGCGUAAUGGUAACGCGUCUCGCUCCUAAGGAGAAGACUGCGGGUUCGAGUCCCGUAUGGAACG [U7A U8G C30G C66U]", "yeast fitness", "≤ 0.5"),
    ("GUUCCGUUGGCGUAAUGGUAACGCGUCUCCGUCCUAAGGAGAAGAUUGCGGGUUCGAGUCCCGUUCGGAACG [C31G C46U A65U]", "yeast fitness", 0.789),
    ("GUUCCGUUGGCGUAAUGGUAACGAGUCUCCCUCCUGGGGAGAAGACUGCGGGUUCGAGUCCCGUACGGAACG [C24A A36G A37G]", "yeast fitness", "≤ 0.5"),
    ("GUUCCGUUGGCGUAAUGGUAUCGCGUCUCCAUCAUAAGCAGAAGACUGCGGGUUCGAGUCACGUACGGAACG [A21U C31A C34A G39C C61A]", "yeast fitness", "≤ 0.5"),
    ("GUUCCGUUGGCGUCAUGGUAACGCGUCUCCCUCCUAAGGAGAAGACUGCGGGAUCGAGUCCCGUCCGGAGCG [A14C U53A A65C A70G]", "yeast fitness", 0.587),
    ("GUUCCGUUGGCGCAAUGGUAACGCGUCUCCUUCCUAAGGAGAAGACUGCGGGUUCGAGUCCCGUACGGUACG [U13C C31U A69U]", "yeast fitness", 0.835),
    ("GUUCCGUAGGCGUAAUGGUAACGCGUCUCACUCCUAAGGAGAAGACUGCGGGUUCGAGUCCCGUGCGGAACG [U8A C30A A65G]", "yeast fitness", 0.543),
    ("GUUCCGUUGGCGUAAUGGUAACGCGUCUCCGUCCUAAGGAGAAGACUGCGGGUUCGAGUCCCGUGCGGAACG [C31G A65G]", "yeast fitness", 0.867),
    ("GUUCCGUUGGCGUAAUGGUAACGCGUCUCCCUCCCAAGGAGAAGAUUGCGGGUUCGAGUCCCGUACGGUACG [U35C C46U A69U]", "yeast fitness", 0.832),
    ("GUUCCGUUCGCGUAAUGGUACCGCGUCUUCCUCCUAAGGAGAAGACUGCGGGUUCGAGUCCCGUACGGAACG [G9C A21C C29U]", "yeast fitness", "≤ 0.5"),
    ("GUUCCGUUGGCGUAAUGGUAACGCGUCUCCCUCCUAAGGAGAAGACUACGGGUUCGAGUCGCGUACGGCACG [G48A C61G A69C]", "yeast fitness", 0.603),
    ("GUUCCGUUGGCGUAAUGGUAACGCGUCUCCCUCCUAAGGAGAAGACUGCGGGUUUGAGUCCUGUACGGAACG [C55U C62U]", "yeast fitness", 0.708),
    ("GUUCCGUUGGCGUAAUGGUAACCCGUAUCCCUCCUAAGGAGAAGACUGCGGGUUCGUGUCCCGUACGGUACG [G23C C27A A57U A69U]", "yeast fitness", "≤ 0.5"),
    ("GUUCAGUUGGCGUAAUGGUAACGCGUCUCCCUUCUAAGGAGAUGACUGGCGGUUCGAGUCUCGUAUGGAACG [C5A C33U A43U C49G G50C C61U C66U]", "yeast fitness", "≤ 0.5"),
    ("GUUCCGUUGGCGUAAUGGUAAAGCGUCUCCCUCCUGAGGAGGAGACUGCGGGUUCGAGUCCCGUACGGAACG [C22A A36G A42G]", "yeast fitness", "≤ 0.5"),
    ("GUUCUGUUGGCGUAAUGGUAACGCGUGUCCCUCCUAAGGAGAAGACCGCGGGUUCGAGUCCCGUACGGAUCG [C5U C27G U47C A70U]", "yeast fitness", "≤ 0.5"),
    ("GUUGCGUUGGCGUAAUGCUAACGCGUCUCCCUCCUAAGGAGAAGACUGCGGGUUCGACUCUCGUACGAAACG [C4G G18C G58C C61U G68A]", "yeast fitness", 0.615),
    ("GUUCCGUUGGCGUAAUGGUAACGCGUCUCCCUCCUAAGGAGAAGACUGCGGGUUCGAGUCCCGUCGGGAACG [A65C C66G]", "yeast fitness", 0.588),
    ("GUUCCGUUGGCGUAAUGGUCACGCGUCUCCCUCAUAGGGAGAAGACUGCGGGUUCGAGUCCUGUAUGGAACG [A20C C34A A37G C62U C66U]", "yeast fitness", 0.554),
    ("GUUCGGUUGGCGUAAUGGUAACGCGUCUCUCUCCUAAGGAGAAGACUGCGGGUUCGAGUCCCGUACCGAACG [C5G C30U G67C]", "yeast fitness", 0.938),
    ("GUUCCGUAGGCGUAAUGGUAACGCGUCUCCCUCCUAAAGAGAAGACUGCGGGUUCGAGUCCCGUACGGAACG [U8A G38A]", "yeast fitness", 0.652),
]
